# Test system: SF-295 CNS
# PROTOCOL DESCRIPTION: NCI tumour cell line growth inhibition, 48 h

COMPOUND	TGI
CN(N=O)N1C(=O)SCC(c2ccccc2)(c2ccccc2)C1=O	> 100 µM
Cn1c(SCc2ccc([N+](=O)[O-])cc2)nnc1C12CC3CC(CC(C3)C1)C2	> 10 µM
CC(=O)Nc1ccc2c(c1)[nH]c(=O)c1cc(NC(C)=O)ccc12	> 100 µM
COc1ccc(/C=C2\CCC(C)(CN(C)C)C2=O)cc1Br (stereo unspecified)	80.7 µM
S=C1NC(c2ccccc2)NC(c2ccccc2)S1 (stereo unspecified)	> 100 µM
CC(=O)OCc1cc[c]([Hg][Cl])o1	28.8 µM
Cc1cc(S(=O)(=O)Nc2nc3ccccc3s2)c(SCc2ccccc2)cc1Cl	32.4 µM
OC[C@H](O)[C@@H](OCc1ccccc1)[C@H](NCc1ccccc1)c1cccs1	> 100 µM
C/C(COc1ccccc1)=N\NC(N)=S	> 100 µM
COc1cc([C@@H]2c3cc4c(cc3[C@H](OC3OC5COC(C(C)C)OC5C(O)C3O)C3COC(=O)[C@@H]32)OCO4)cc(OC)c1OC (stereo partly specified)	> 23.8 µM
CN(C)CC(O)CNC(=O)Nc1ccccc1 (stereo unspecified)	> 100 µM

Measured values drawn from PubChem BioAssay (NCI) for this set.
